Each recorded value in this set is attributed to patent US9045524B2.

Target: Caspase-5 (Homo sapiens (Human), UniProt P51878)
Sequence (P51878 137-434): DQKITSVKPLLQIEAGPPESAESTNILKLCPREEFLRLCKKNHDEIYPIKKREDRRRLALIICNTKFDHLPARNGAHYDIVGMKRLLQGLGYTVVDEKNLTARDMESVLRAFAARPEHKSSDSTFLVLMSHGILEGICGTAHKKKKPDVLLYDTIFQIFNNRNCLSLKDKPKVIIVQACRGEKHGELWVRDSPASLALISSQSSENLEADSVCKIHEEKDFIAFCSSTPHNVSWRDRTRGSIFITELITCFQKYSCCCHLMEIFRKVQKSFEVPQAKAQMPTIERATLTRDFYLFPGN
Test: Caspase-5 Inhibitor Drug Screening Kit, fluorometric (AFC liberation)
Assay type: biochemical
Settings: 30-minute incubation at 37° C.; approximations of the average values; read-out: Caspase enzymatic activity, IC50 (uM) Caspase 5
Counter-ions that a name gives are not always drawn.
Quick list: IC50 per entry.

compound	IC50
CC(C)(C)OC(=O)C[C@@H](/C=C/S(=O)(=O)c1ccccc1)NC(=O)OC(C)(C)C [Compound 36, Boc-Asp(O-tBu)VSphenyl]	> 3.33 µM
CC(C)[C@H](NC(=O)[C@@H](NC(=O)[C@H](CC(=O)O)NC(=O)OCc1ccccc1)c1ccccc1)C(=O)N[C@H](/C=C/S(C)(=O)=O)CC(=O)O [Compound 53, Z-Asp-Phg-Val-Aspmethyl vinyl sulfone]	> 10 µM
CC(C)[C@H](NC(=O)[C@H](CCC(=O)O)NC(=O)[C@H](Cc1ccc(O)cc1)NC(=O)OCc1ccccc1)C(=O)N[C@H](/C=C/S(C)(=O)=O)CC(=O)O [Compound 82]	> 3 µM
CC(C)[C@H](NC(=O)[C@H](Cc1ccc2ccccc2n1)NC(=O)[C@H](CC(=O)OC(C)(C)C)NC(=O)OCc1ccccc1)C(=O)N[C@H](/C=C/S(=O)(=O)N1CCOCC1)CC(=O)OC(C)(C)C [Compound 66]	> 3.33 µM
CC(C)[C@H](NC(=O)OCc1ccccc1)C(=O)N[C@H](/C=C/S(C)(=O)=O)CC(=O)O [Compound 61, z-Val-AspVSmethyl]	> 3.33 µM

Problem: What value of IC50 has been recorded for this entry: CC(C)(C)OC(=O)C[C@H](N)/C=C/S(=O)(=O)c1ccccc1 [Compound 37, Asp-vinyl Phenyl Sulfone Salt Form]
Solution: > 3.33 µM

Problem: Then CS(=O)(=O)/C=C/[C@@H](N)CC(=O)O.Cc1ccc(S(=O)(=O)O)cc1 [Compound 93, AspVSmethyl] ?
Solution: > 3.33 µM

Problem: Moving on to CC(C)[C@H](NC(=O)[C@H](Cc1ccc2ccccc2n1)NC(=O)[C@H](CC(=O)O)NC(=O)OCc1ccccc1)C(=O)N[C@H](/C=C(\Cl)S(C)(=O)=O)CC(=O)O [Compound 48]
Solution: > 3.33 µM

Problem: CC(C)[C@H](NC(=O)C(Cc1ccc2ccccc2n1)NC(=O)[C@H](CC(=O)O)NC(=O)OCc1ccccc1)C(=O)N[C@H](/C=C/S(=O)(=O)c1ccccc1)CC(=O)O (some centres unmarked) [Compound 70] ?
Solution: > 10 µM

Problem: Lookup CC(C)(C)OC(=O)C[C@H](N)/C=C/S(C)(=O)=O.Cc1ccc(S(=O)(=O)O)cc1 [Compound 33]
Solution: > 3.33 µM

Problem: Try this compound next: CC(C)[C@H](NC(=O)[C@@H](NC(=O)[C@H](CC(=O)O)NC(=O)OCc1ccccc1)c1ccccc1)C(=O)N[C@H](/C=C/S(=O)(=O)c1ccccc1)CC(=O)O [Compound 69, Z-Asp-Phg-Val-Asp-phenyl Vinylsulfone]
Solution: > 10 µM
